assay: NCI Yeast Anticancer Drug Screen. Data for the bub3 strain (AID 167); conditions: S. cerevisiae bub3 mutant strain, at 50.0 µM (retest, dose inferred, filed as 5.0), active compounds read high
The panel holds about 79,000 compounds, 15% with a hit somewhere; the sample as a whole holds those more often. Calls of active or inactive are those of the source. No stated cut-off is given here; in the data, active means growth inhibition above about 70%; inactive means the rest.
Assay Readout: growth inhibition

Reference set, count: 2
Compound	growth inhibition
C=C1C(=O)OC2C1CCC(=C)C1CC(O)C(=C)C12 (stereo unspecified)	65% (inactive)
COc1ccc(C(CC(=O)c2ccc(C)cc2)Sc2ccccc2N)cc1 (stereo unspecified)	17% (inactive)

For the compound CCCCCCCCCCCCCCC(=O)OCC[N+](C)(C)C , what growth inhibition is on record?
99% (active)

Consider next the compound O=C(O)c1cccc(S(=O)(=O)NN2C(=O)CSC2c2c(O)ccc3ccccc23)c1 (stereo unspecified) in the same way.
86% (active)

Consider next the compound O=C1/C(=C/c2cccc(O)c2)COc2ccccc21 in the same way.
95% (active)

Consider next the compound Cc1cc(Cc2ccccc2)ccc1O in the same way.
47% (inactive)
